Target: UniProtKB P10415
Test: FP-based binding assay, Bcl-2
Conditions: read-out: Binding Affinities Bcl-2 IC50 ± SD; Table 4, FP-based assay
pIC50: −log10 of the molar value.

Smiles: CNC(=O)c1c(-c2cccc(N3CCN(c4ccc(NS(=O)(=O)c5ccc(N[C@H](CCN(C)C)CSc6ccccc6)c([N+](=O)[O-])c5)cc4)CC3)c2)c(-c2ccc(Cl)cc2)n(C)c1C
Tested target: UniProtKB P10415
pIC50: 8.30

###

Tested on: RS4;11 cells
Experiment: Cell growth assay (WST-8), RS4;11
Format: cell-based
Conditions: Homo sapiens, RS4-11, 96 h; Table 4, 4 days; read-out: Cell Growth Inhibition (IC50 ± SD, nM) RS4;11
Reported IC50 values are given for each entry in this list.
Measure name: IC50 (nM)

Compound: Cc1c(C(=O)O)c(-c2cccc(N3CCN(c4ccc(NS(=O)(=O)c5ccc(N[C@H](CCN(C)C)CSc6ccccc6)c([N+](=O)[O-])c5)cc4)CC3)c2)c(-c2ccc(Cl)cc2)n1C [Compound 178]
Measure name: IC50
Unit annotation: nM
Quantitative readout: 26

Compound: Cc1c(C(=O)O)c(-c2cccc(N3CCN(c4ccc(NS(=O)(=O)c5ccc(N[C@H](CCN6CCOCC6)CSc6ccccc6)c([N+](=O)[O-])c5)cc4)CC3)c2)c(-c2ccc(Cl)cc2)n1C [Compound 187]
Measure name: IC50
Unit annotation: nM
Quantitative readout: 99

Compound: Cc1c(C(=O)NS(C)(=O)=O)c(-c2cccc(N3CCN(c4ccc(NS(=O)(=O)c5ccc(N[C@H](CCN(C)C)CSc6ccccc6)c([N+](=O)[O-])c5)cc4)CC3)c2)c(-c2ccc(Cl)cc2)n1C [Compound 133]
Measure name: IC50
Unit annotation: nM
Quantitative readout: 87

Compound: CNC(=O)c1c(-c2cccc(N3CCN(c4ccc(NS(=O)(=O)c5ccc(N[C@H](CCN(C)C)CSc6ccccc6)c([N+](=O)[O-])c5)cc4)CC3)c2)c(-c2ccc(Cl)cc2)n(C)c1C [Compound 125]
Measure name: IC50
Unit annotation: nM
Quantitative readout: 74

Compound: Cc1c(C(=O)O)c(-c2cccc(N3CCN(c4ccc(NS(=O)(=O)c5ccc(N[C@H](CCN6CCOCC6)CSc6ccccc6)c(S(=O)(=O)C(F)(F)F)c5)cc4)CC3)c2)c(-c2ccc(Cl)cc2)n1C [Compound 186]
Measure name: IC50
Unit annotation: nM
Quantitative readout: 493

Compound: Cc1c(C(=O)O)c(-c2cccc(N3CCN(c4ccc(NS(=O)(=O)c5ccc(N[C@H](CCN(C)C)CSc6ccccc6)c(S(=O)(=O)C(F)(F)F)c5)cc4)CC3)c2)c(-c2ccc(Cl)cc2)n1C [Compound 185]
Measure name: IC50
Unit annotation: nM
Quantitative readout: 81

Compound: CNC(=O)c1c(-c2cccc(N3CCN(c4ccc(NS(=O)(=O)c5ccc(N[C@H](CCN6CCOCC6)CSc6ccccc6)c([N+](=O)[O-])c5)cc4)CC3)c2)c(-c2ccc(Cl)cc2)n(C)c1C [Compound 124]
Measure name: IC50
Unit annotation: nM
Quantitative readout: 89

###

Target: Bcl-2 (Homo sapiens)
Sequence (P10415 whole entry): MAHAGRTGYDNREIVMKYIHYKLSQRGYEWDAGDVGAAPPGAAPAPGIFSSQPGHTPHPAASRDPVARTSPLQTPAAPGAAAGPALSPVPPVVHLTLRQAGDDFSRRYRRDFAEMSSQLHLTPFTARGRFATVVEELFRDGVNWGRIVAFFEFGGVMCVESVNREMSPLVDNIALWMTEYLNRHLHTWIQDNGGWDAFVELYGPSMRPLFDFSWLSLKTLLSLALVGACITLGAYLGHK
Assay: FP-based binding assay, Bcl-2
Conditions: read-out: Binding Affinities Bcl-2 Ki ± SD; Table 4; * Ki is an estimate, compound more potent than the tracer
pKi: −log10 of the molar value.
Measure name: pKi

Compound: CNC(=O)c1c(-c2cccc(N3CCN(c4ccc(NS(=O)(=O)c5ccc(N[C@H](CCN(C)C)CSc6ccccc6)c([N+](=O)[O-])c5)cc4)CC3)c2)c(-c2ccc(Cl)cc2)n(C)c1C [Compound 125]
Tested target: Bcl-2 (Homo sapiens)
Quantitative readout: 8.96
